system: Human immunodeficiency virus type 1 integrase (Human immunodeficiency virus 1, UniProt Q7ZJM1, C280S/F185K)
experiment: Inhibition of HIV1 3'-processing activity of integrase F185K/C280S double mutant expressed in Escherichia coli BL21 (DE3)
measurement name: IC50 (nM)
All answers are understood in nM, so give the number only.

H-HLKTAVQMAVFIHNFKR-OH :: 2000
H-HLKTAVQMAVFIHNFKRKGGIGGYSAGERIVDIIATDIQ-NH2 :: 1700

Prompt line: Would you mind telling me what IC50 value was observed for H-AGERIVDIIATDIQ-NH2 ?
Response line: 3000

All values here come from ChEMBL document CHEMBL2396590.
